# assay.name: Microsome stability assay, mouse liver microsomes
# Assay type: in vitro ADME
# run.conditions: mouse, mouse liver microsomes, pooled; 1 μM compound, 0.5 mg/mL microsomal protein, NADPH, 37° C.; read-out: Microsome Stability Mouse liver microsomes T½
assay.metric: half-life at 1 h, 1 µM (min)
// units = min; emit number, no label

Known results for compounds:
Prompt line: half-life at 1 h, 1 µM lookup needed for CCCC1CCc2cc(OC)ccc2C1NC(=O)c1ccc(C(F)(F)F)[nH]c1=O (stereo not drawn) , thanks.
Response line: 29.5

Prompt line: half-life at 1 h, 1 µM lookup needed for CCC1CCc2cc(Cl)ccc2C1NC(=O)c1ccc(C(F)(F)F)[nH]c1=O (stereo not drawn) , thanks.
Response line: 39.1

Please find the next compound below.
Prompt line: half-life at 1 h, 1 µM lookup needed for CCCC1Cc2cc(C)ccc2C(NC(=O)c2ccc(C(F)(F)F)[nH]c2=O)C1 (stereo not drawn) , thanks.
Response line: 26.6

----------
# assay.name: Microsome stability assay, human liver microsomes
# Type: in vitro ADME
# run.conditions: human, human liver microsomes, pooled; 1 μM compound, 0.5 mg/mL microsomal protein, NADPH, 37° C.; read-out: Microsome Stability Human liver microsomes Cl
# Description: Compounds of the disclosure were screened in microsome stability assays. […] A single point for each test condition (n=1) was obtained, and samples were analyzed by LC/MS/MS. Disappearance of the test compound was assessed based on peak area ratios of analyte/IS (no standard curve).
Label key: 1.0 means microsomal CLint at 1 h, 1 µM under 60 µL/min/mg; 0.0 means microsomal CLint at 1 h, 1 µM of 60 µL/min/mg or more.

Please review the following examples before continuing.
Prompt line: hey, is microsomal CLint at 1 h, 1 µM for COc1ccc2c(c1)Oc1cc(OC)ccc1C2NC(=O)c1ccc(C(F)F)[nH]c1=O lower than 60 µL/min/mg or not?
Response line: 1.0

Prompt line: hey, is microsomal CLint at 1 h, 1 µM for O=C(NC(c1ccccc1)c1ccc(-c2ccccc2)cc1)c1ccc(C(F)(F)F)[nH]c1=O (centres unmarked) lower than 60 µL/min/mg or not?
Response line: 0.0

Prompt line: hey, is microsomal CLint at 1 h, 1 µM for COC1Cc2cc(C)ccc2C1NC(=O)c1ccc(C(F)(F)F)[nH]c1=O (centres unmarked) lower than 60 µL/min/mg or not?
Response line: 0.0

Prompt line: hey, is microsomal CLint at 1 h, 1 µM for CC(C)c1ccc(C(NC(=O)c2ccc(C(F)(F)F)[nH]c2=O)c2ccccc2)cc1 (centres unmarked) lower than 60 µL/min/mg or not?
Response line: 0.0

Further cases:
Prompt line: hey, is microsomal CLint at 1 h, 1 µM for CCc1ccc(C(NC(=O)c2ccc(C(F)(F)F)[nH]c2=O)c2ccccc2)cc1 (centres unmarked) lower than 60 µL/min/mg or not?
Response line: 0.0

Prompt line: hey, is microsomal CLint at 1 h, 1 µM for CCC1Cc2cc(C)ccc2C1NC(=O)c1ccc(C(F)(F)F)[nH]c1=O (centres unmarked) lower than 60 µL/min/mg or not?
Response line: 0.0

Prompt line: hey, is microsomal CLint at 1 h, 1 µM for Cc1ccc(C(NC(=O)c2ccc(C(F)(F)F)[nH]c2=O)c2ccc(C)cc2)cc1 lower than 60 µL/min/mg or not?
Response line: 1.0

Prompt line: hey, is microsomal CLint at 1 h, 1 µM for CCCC1CCc2cc(Cl)ccc2C1NC(=O)c1ccc(C(F)(F)F)[nH]c1=O (centres unmarked) lower than 60 µL/min/mg or not?
Response line: 1.0

Prompt line: hey, is microsomal CLint at 1 h, 1 µM for Cc1ccc(C(=O)NC(c2ccccc2)c2ccccc2O)c(=O)[nH]1 (centres unmarked) lower than 60 µL/min/mg or not?
Response line: 0.0

Prompt line: hey, is microsomal CLint at 1 h, 1 µM for Cc1ccc2c(c1)Sc1cc(C)ccc1C2NC(=O)c1cc(-c2ccccn2)c(C(F)(F)F)[nH]c1=O lower than 60 µL/min/mg or not?
Response line: 0.0

Prompt line: hey, is microsomal CLint at 1 h, 1 µM for O=C(NC(c1ccccc1)c1ccc2c(c1)OCO2)c1ccc(C(F)(F)F)[nH]c1=O (centres unmarked) lower than 60 µL/min/mg or not?
Response line: 0.0

Prompt line: hey, is microsomal CLint at 1 h, 1 µM for Cc1ccc2c(c1)CCCC2NC(=O)c1ccc(C(F)(F)F)[nH]c1=O (centres unmarked) lower than 60 µL/min/mg or not?
Response line: 0.0
